test.system: UniProt P11150
assay.explanation: HL assay: hepatic lipase activity with fluorescent substrate A10070 in DMPG vesicles
Format: biochemical
value.type: IC50 (nM)
Give bare numbers, in nM.

Some compounds with known IC50 results, for comparison:
{"compound": "CS(=O)(=O)C(C(=O)NCCS(N)(=O)=O)c1nc2cc(-c3ccc(C(=O)NCCO)cc3)ccc2s1 (centres unmarked)", "IC50 (nM)": 123}
{"compound": "COc1cc(-c2ccc3sc(C(C(=O)NCCS(N)(=O)=O)S(C)(=O)=O)nc3c2)ccn1 (centres unmarked)", "IC50 (nM)": 2.2}
{"compound": "COCCOc1ccc(-c2ccc3sc(C(C(=O)NCCS(N)(=O)=O)S(C)(=O)=O)nc3c2)cc1 (centres unmarked)", "IC50 (nM)": 15.5}
{"compound": "Cn1cc(-c2ccc3nc(C(C(=O)NCCS(N)(=O)=O)S(=O)(=O)Cc4ccc(C(F)(F)F)cc4)sc3c2)ccc1=O (centres unmarked)", "IC50 (nM)": 1230}
{"compound": "CS(=O)(=O)C(C(=O)NCCS(N)(=O)=O)c1nc2ccc(-c3cccc(CCO)c3)cc2s1 (centres unmarked)", "IC50 (nM)": 36}

Provide each entry's IC50 from the list below.
1. NS(=O)(=O)CCNC(=O)C(c1nc2ccc(-c3ccccc3)cc2s1)S(=O)(=O)CCC(F)(F)F (centres unmarked)
2. NS(=O)(=O)CCNC(=O)C(c1nc2ccc(-c3ccc(C(=O)N4CCC(F)(F)C4)cc3)cc2s1)S(=O)(=O)CCC(F)(F)F (centres unmarked)
3. NS(=O)(=O)CCNC(=O)C(c1nc2ccc(-c3ccc(C(=O)N4CCOCC4)cc3)cc2s1)S(=O)(=O)CCNC(=O)OCc1ccccc1 (centres unmarked)
4. CS(=O)(=O)C(C(=O)NCCS(N)(=O)=O)c1nc2ccc(-c3ccc(OCCN4CCCCC4)cc3)cc2s1 (centres unmarked)
5. CN(CC(F)F)C(=O)c1cccc(-c2ccc3nc(C(C(=O)NCCS(N)(=O)=O)S(=O)(=O)CCC(F)(F)F)sc3c2)c1 (centres unmarked)
6. NS(=O)(=O)CCNC(=O)C(c1nc2ccc(-c3ccc(C(=O)N4CCOCC4)cc3)cc2s1)S(=O)(=O)Cc1ccc(Cl)c(Cl)c1 (centres unmarked)
7. COCCS(=O)(=O)C(C(=O)NCCS(N)(=O)=O)c1nc2ccc(-c3cncnc3)cc2s1 (centres unmarked)
8. CS(=O)(=O)C(C(=O)NCCS(N)(=O)=O)c1nc2ccc(-c3cccc(O)n3)cc2s1 (centres unmarked)

RESULT:
2.6
32
31
10
99.7
556
2210
398

QUERY: For CC(=O)Nc1cccc(-c2ccc3nc(C(C(=O)NCCS(N)(=O)=O)S(C)(=O)=O)sc3c2)c1 (centres unmarked) , write its IC50.
RESULT: 66

* * *

Provide the reported pIC50 of each item.
test.system: hepatic lipase (HL) (Homo sapiens (Human), UniProt P11150)
Sequence (P11150 23-499, species assumed): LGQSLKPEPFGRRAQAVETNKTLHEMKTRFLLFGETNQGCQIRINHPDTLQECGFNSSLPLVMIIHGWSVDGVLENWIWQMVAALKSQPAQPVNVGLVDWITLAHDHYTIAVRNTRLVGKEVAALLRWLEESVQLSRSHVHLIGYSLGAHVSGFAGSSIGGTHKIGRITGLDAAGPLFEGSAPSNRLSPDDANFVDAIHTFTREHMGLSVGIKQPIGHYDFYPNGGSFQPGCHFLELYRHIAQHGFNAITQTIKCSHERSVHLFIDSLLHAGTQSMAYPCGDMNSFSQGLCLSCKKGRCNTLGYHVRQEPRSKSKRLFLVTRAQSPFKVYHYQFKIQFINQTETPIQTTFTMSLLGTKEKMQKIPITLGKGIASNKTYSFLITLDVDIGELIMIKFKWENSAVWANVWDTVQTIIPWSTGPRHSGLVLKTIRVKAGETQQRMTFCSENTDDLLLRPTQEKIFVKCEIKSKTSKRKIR
assay.explanation: HL assay: hepatic lipase activity with fluorescent substrate A10070 in DMPG vesicles
Assay type: biochemical
Answers are plain numbers, as −log10 of the molar value.

Some molecules with known pIC50 results, for comparison:
{"molecule": "CS(=O)(=O)C(C(=O)NCCS(N)(=O)=O)c1nc2cc(-c3cccc(F)n3)ccc2s1 (stereo not shown)", "test.system": "hepatic lipase (HL) (Homo sapiens (Human), UniProt P11150)", "pIC50": 7.73}
{"molecule": "COCCNC(=O)c1ccc(-c2ccc3nc(C(C(=O)NCc4nnc(C)o4)S(=O)(=O)CCOC)sc3c2)cc1 (stereo not shown)", "test.system": "hepatic lipase (HL) (Homo sapiens (Human), UniProt P11150)", "pIC50": 6.73}
{"molecule": "NS(=O)(=O)CCNC(=O)C(c1nc2ccc(-c3ccc(OCCN4CCCCC4)cc3)cc2s1)S(=O)(=O)CCC(F)(F)F (stereo not shown)", "test.system": "hepatic lipase (HL) (Homo sapiens (Human), UniProt P11150)", "pIC50": 7.64}

Here is the next item to consider.
QUERY: For COCCn1cc(-c2ccc3sc(C(C(=O)NCCS(N)(=O)=O)S(C)(=O)=O)nc3c2)cn1 (stereo not shown) , write its pIC50.
RESULT: 7.00
